Listing of recorded IC50 by entry.
System: ATF4 in CCRF-CEM leukemia cells (PERK)
Assay: CCRF-CEM TG ATF4 ELISA, phenotypic assay for cellular inhibition of PERK preactivated by thapsigargin
Assay type: cell-based
Details: Homo sapiens; Thapsigargin (1 μM) stimulated CCRF-CEM cells

Here's what some known entries look like.
CNc1ncc2cc(-c3cccc(NS(=O)(=O)c4cc(Cl)cnc4OC)c3)c(N)nc2n1 [Example 64]	1 to 10 µM
CNc1ncc2cc(-c3cc(NS(=O)(=O)c4cc(Cl)cnc4OC)cc(F)c3F)c(C)nc2n1 [Example 48]	1 to 10 µM
CNc1ncc2cc(-c3cc(NS(=O)(=O)c4cc(Cl)cnc4OC)cc(F)c3C)c(C)nc2n1 [Example 26]	1 to 10 µM
CNc1ncc2cc(-c3cc(NS(=O)(=O)c4cc(Cl)cnc4OC)ccc3F)c(C)nc2n1 [Example 38]	1 to 10 µM
CNc1ncc2cc(-c3cccc(NS(=O)(=O)c4cc(Cl)cnc4OC)c3Cl)ccc2n1 [Example 62]	1 to 10 µM

Q: Check the records and state IC50 for COc1ncc(Cl)cc1S(=O)(=O)Nc1cccc(-c2cc3cnc(Nc4cnn(C)c4)nc3nc2C)c1F [Example 88]
Result: 0.1 to 0.5 µM

Q: Look up and state reported IC50 for CNc1ncc2cc(-c3cccc(NS(=O)(=O)c4cc(Cl)cnc4OC)c3F)c(OC)nc2n1 [Example 66]
Result: 1 to 10 µM

Q: Using the record for COc1ncc(Cl)cc1S(=O)(=O)Nc1cccc(-c2cnc3nc(Nc4cnn(C)c4)ncc3c2)c1 [Example 59] , state its measured IC50.
Result: 1 to 10 µM

Q: Item CNc1ncc2cc(-c3cccc(NS(=O)(=O)c4cc(Cl)cnc4OC)c3F)c(NCCOC)nc2n1 [Example 100] : provide IC50
Result: 1 to 10 µM

----------
Test system: CCRF-CEM leukemia cells
Assay: CCRF-CEM ASNase cell proliferation assay, phenotypic assay for cellular inhibition of GCN2
Type: cell-based
Conditions: Homo sapiens; ASNase treated CCRF-CEM cells, 1 mU/mL ASNase, 72 h
quantityKind: IC50

These solved cases illustrate the format of a correct answer.
CNc1cnc(OC)c(S(=O)(=O)Nc2cccc(-c3cc4cnc(NC)cc4nc3C)c2F)c1	≤ 100 nM
CNc1cc2nc(C)c(-c3cc(NS(=O)(=O)c4cc(Cl)cc(CO)c4Cl)c(F)cc3Br)cc2cn1	1000 to 10000 nM
COc1nc2nc(N)ncc2cc1-c1ccnc(NS(=O)(=O)c2cc(Cl)cnc2OC)c1F	500 to 1000 nM

Q: Determine from records and report IC50 for CNc1ncc2cc(-c3cc(NS(=O)(=O)c4cc(Cl)cnc4OC)c(F)cc3C)c(C)nc2n1
Result: 1000 to 10000 nM

----------
Listing of recorded pIC50 by entry.
Target: GCN2 kinase (Homo sapiens (Human))
Sequence (Q9P2K8 whole entry): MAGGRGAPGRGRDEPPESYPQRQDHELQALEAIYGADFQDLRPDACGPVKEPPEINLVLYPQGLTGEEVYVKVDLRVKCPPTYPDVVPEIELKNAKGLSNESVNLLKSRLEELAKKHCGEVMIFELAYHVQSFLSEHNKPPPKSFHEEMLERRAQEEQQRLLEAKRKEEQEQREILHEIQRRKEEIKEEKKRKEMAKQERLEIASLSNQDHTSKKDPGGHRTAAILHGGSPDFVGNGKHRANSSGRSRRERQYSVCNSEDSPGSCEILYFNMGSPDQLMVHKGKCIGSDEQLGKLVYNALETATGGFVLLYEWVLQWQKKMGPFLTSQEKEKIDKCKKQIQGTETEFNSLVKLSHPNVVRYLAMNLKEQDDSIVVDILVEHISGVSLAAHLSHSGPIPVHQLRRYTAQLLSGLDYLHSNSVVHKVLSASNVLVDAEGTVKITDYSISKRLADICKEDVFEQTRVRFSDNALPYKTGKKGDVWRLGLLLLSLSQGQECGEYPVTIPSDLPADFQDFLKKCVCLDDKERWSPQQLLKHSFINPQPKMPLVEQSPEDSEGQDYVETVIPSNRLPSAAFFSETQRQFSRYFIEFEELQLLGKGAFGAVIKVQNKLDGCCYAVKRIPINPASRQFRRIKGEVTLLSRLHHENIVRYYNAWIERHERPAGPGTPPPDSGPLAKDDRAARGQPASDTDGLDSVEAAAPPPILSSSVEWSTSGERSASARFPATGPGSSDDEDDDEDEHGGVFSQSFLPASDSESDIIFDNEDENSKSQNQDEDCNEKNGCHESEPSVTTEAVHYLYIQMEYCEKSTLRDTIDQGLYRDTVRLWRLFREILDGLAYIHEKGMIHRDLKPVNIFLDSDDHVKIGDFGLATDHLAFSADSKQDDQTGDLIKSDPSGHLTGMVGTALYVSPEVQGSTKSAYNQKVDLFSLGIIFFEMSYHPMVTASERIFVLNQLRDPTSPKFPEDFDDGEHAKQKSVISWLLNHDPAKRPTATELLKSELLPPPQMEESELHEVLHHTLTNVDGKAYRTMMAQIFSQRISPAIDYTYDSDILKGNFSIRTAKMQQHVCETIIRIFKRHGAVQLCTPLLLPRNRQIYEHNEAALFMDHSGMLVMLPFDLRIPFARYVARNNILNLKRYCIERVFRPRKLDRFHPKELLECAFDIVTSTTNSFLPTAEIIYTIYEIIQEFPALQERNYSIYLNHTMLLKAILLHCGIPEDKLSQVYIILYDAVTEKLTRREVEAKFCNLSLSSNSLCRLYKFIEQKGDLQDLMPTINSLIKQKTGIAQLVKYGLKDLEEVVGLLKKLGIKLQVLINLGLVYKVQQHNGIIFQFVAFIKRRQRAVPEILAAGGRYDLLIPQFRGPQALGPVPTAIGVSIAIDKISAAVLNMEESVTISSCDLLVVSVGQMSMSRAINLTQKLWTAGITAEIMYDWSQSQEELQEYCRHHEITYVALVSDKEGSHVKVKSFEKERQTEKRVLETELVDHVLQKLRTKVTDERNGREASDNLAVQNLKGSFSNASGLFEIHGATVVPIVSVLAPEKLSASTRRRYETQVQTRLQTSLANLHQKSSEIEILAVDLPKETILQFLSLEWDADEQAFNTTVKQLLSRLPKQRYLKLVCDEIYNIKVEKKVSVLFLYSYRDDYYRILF
Test: Biochemical assay for GCN2 (TR-FRET kinase activity assay)
Details: 1 mM ATP, 3-hour incubation
pIC50: −log10 of the molar value.

CNc1ncc2cc(-c3cccc(NS(=O)(=O)c4cc(Cl)cnc4OC)c3F)c(NCC3COC3)nc2n1 [Example 99]	6.30 to 7.00
CNc1cc2nc(C)c(-c3cc(NS(=O)(=O)c4cc(Cl)cc(CO)c4Cl)c(F)cc3F)cc2cn1 [Example 22]	≥ 7.00
COc1cc2nc(N)ncc2cc1-c1cccc(NS(=O)(=O)c2cc(Cl)cc(CO)c2Cl)c1F [Example 167]	≥ 7.00

Q: Tell me its pIC50 given CNc1ncc2cc(-c3cccc(NS(=O)(=O)c4cc(Cl)c(OC)cc4Cl)c3F)c(NC)nc2n1 [Example 132] as the entry.
Result: ≥ 7.00

Q: # return recorded pIC50 for input COc1ncc(Cl)cc1S(=O)(=O)Nc1cccc(-c2ccc3nc(NC(C)=O)ncc3c2)c1F [Example 35]
Result: ≥ 7.00

Q: Determine its reported pIC50: CNc1ncc2cc(-c3cccc(NS(=O)(=O)c4cc(Cl)cnc4NC)c3F)c(C)nc2n1 [Example 90]
Result: ≥ 7.00
